Molecular target: Cytochrome P450 1A2 (Homo sapiens) (UniProt P05177)
Sequence (P05177 whole entry, looked up): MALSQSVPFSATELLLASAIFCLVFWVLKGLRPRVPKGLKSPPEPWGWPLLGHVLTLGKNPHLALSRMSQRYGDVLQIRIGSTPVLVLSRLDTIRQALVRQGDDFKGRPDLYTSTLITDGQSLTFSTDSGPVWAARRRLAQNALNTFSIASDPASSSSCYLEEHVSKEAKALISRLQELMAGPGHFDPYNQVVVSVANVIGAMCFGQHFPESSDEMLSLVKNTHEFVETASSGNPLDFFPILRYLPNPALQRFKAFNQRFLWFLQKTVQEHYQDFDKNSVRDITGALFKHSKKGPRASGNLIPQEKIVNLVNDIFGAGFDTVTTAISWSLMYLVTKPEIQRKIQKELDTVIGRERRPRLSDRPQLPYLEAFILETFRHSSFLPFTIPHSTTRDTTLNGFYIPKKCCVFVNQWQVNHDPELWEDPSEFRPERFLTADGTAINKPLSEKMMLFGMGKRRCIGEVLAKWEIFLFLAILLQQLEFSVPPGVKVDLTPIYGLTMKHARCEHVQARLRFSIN
Test: Cytochrome panel assay with activity outcomes
Conditions: recombinant CYP, pro-luciferin dealkylation, luminescence, p450-cyp1a2; series mostly up to 57.1 µM
Description: The P450 gene superfamily is involved in the metabolism and clearance of xenobiotics. This assay used various human CYP P450 isozymes to measure the dealkylation of various pro-luciferin substrates to luciferin. The luciferin is then measured by luminescence after the addition of a luciferase detection reagent. […] Inhibitors and some substrates limit the production of luciferin, and decrease measured luminescence. […] 8, Detection, 1 sec, ViewLux luminescent read […]
Hit rate of the full screen: of about 16,000 compounds, about 5,700 (36%) were called active. Roughly 24% stayed inconclusive and do not appear here. The list shows a part of the results.
Test readout: AC50

According to the records, this molecule `Cc1ccc(C)c(Nc2nc3nonc3nc2N2CCOCC2)c1` displays AC50 of 5010 nM (active)

Lookup result for `O=C1CCCN1c1ccc(S(=O)(=O)Oc2cccc(Cl)c2)cc1[N+](=O)[O-]` ; measured AC50: 15800 nM (active)

molecule `COc1ccccc1CN1CCCC2(CCNCC2)C1` , AC50 observed: inactive

AC50 for `Cn1c(=O)c(-c2ccc(Cl)cc2)nc2cnc(Oc3ccccc3)nc21` is 200 nM (active)

Recorded result, `Cc1nc2c(OCc3ccccc3)cccn2c1CC#N` , AC50: 398 nM (active)

More entries:
Looking up `CCCCC[C@H](CC(=O)NO)C(=O)N[C@@H](C(=O)N1CCC[C@H]1CO)C(C)C` , I found its AC50 recorded as inactive

====

target: Cytochrome P450 1A2 (Homo sapiens) (UniProt P05177); assay: Cytochrome panel assay with activity outcomes; details: recombinant CYP, pro-luciferin dealkylation, luminescence, p450-cyp1a2; series mostly up to 57.1 µM
Among all 16,000 compounds or so, about 5,700 (36%) were called active. Not shown: some 24% with an inconclusive outcome. The list shows a part of the results.
Test readout: AC50

Note to self: AC50 recorded for `COc1ccc(C(=O)N2CCC3(CCCN(Cc4cc(C(F)(F)F)cc(C(F)(F)F)c4)C3)CC2)cc1` was inactive

The compound listed as `COc1cccc(C(=O)NCCN2CCOCC2)c1` shows AC50 equal to inactive

`CCc1nnc(NC(=O)CCC(=O)N2CCN(c3ccccn3)CC2)s1` has a reported AC50 of inactive

// AC50 value for Cc1cccc(C2NC(=O)c3c(sc(C)c3C)N2)c1O (centres undefined) : 3.55 µM (active)

====

target: Cytochrome P450 1A2 (Homo sapiens) (UniProt P05177); experiment: Cytochrome panel assay with activity outcomes; conditions: recombinant CYP, pro-luciferin dealkylation, luminescence, p450-cyp1a2; series mostly up to 57.1 µM
Out of some 16,000 compounds screened, about 5,700 (36%) were called active. Roughly 24% stayed inconclusive and do not appear here. Calls follow the shape of the dose curve; as a rule, active = well fitted curve in the direction sought with a large enough effect; inconclusive = small, poorly fitted or top-dose-only effect, or effect the other way; inactive = no such curve, though single readings can be large or run the other way. The list shows a part of the results.
Lab note: assign the record to one of 1 = active, -1 = inactive

Example entries and their recorded answers appear below.
Ask: Could you please tell me the result logged for `O=c1c(CCc2ccccc2)nc2cncnc2n1Cc1ccc(F)cc1` in this assay?
Reply: 1

Ask: Check the results log: what was the call for `CN(C)c1ncc2nc(-c3cccc(C#N)c3)c(=O)n(CCC#N)c2n1` ?
Reply: -1

Ask: I'd appreciate the recorded outcome for `COC(=O)Nc1ccc2[nH]cc(CCNC(C)=O)c2c1` from this test.
Reply: 1

Ask: Hi, do you know how `COCCNc1cc(-c2ccccc2CN(C)C)ncn1` came out in this test?
Reply: -1

# next molecule below
Ask: Assay outcome for `CC(C)SC(=N)N` : what was it?
Reply: -1

====

target: Cytochrome P450 1A2 (Homo sapiens) (UniProt P05177); test: Cytochrome panel assay with activity outcomes; conditions: recombinant CYP, pro-luciferin dealkylation, luminescence, p450-cyp1a2; series mostly up to 57.1 µM
In all, about 16,000 compounds went through this assay and about 5,700 (36%) were called active. About 24% were inconclusive and are not listed. The call rests on the fitted dose curve; in most records, active means well fitted curve in the direction sought with a large enough effect; inconclusive means small, poorly fitted or top-dose-only effect, or effect the other way; inactive means no such curve, though single readings can be large or run the other way. The list shows a part of the results.
Log the outcome using a class from 1.0 = active, 0.0 = inactive

Ask: What did the test return for `Cc1ccccc1N=C(N)Nc1ccccc1C` ?
Reply: 0.0

Ask: Could you kindly confirm the outcome this assay logged for Cc1ccc(NC(=O)NNC(=O)C2CC(c3cccnc3)=NO2)cc1 (stereo not given) ?
Reply: 0.0

Ask: Per the records of this test, what outcome belongs to COCCNC(=O)C1CC(c2cccc(OC)c2)=NO1 (stereo not given) ?
Reply: 0.0

***
Ask: So what was the verdict on COc1cccc(C2=NOC(C(=O)NCCN3CCOCC3)C2)c1 (stereo not given) in this test?
Reply: 0.0

Ask: Which outcome was assigned to `O=C(c1cnccn1)N1CCC2(CCCN(c3ccccc3)C2)CC1` in this test?
Reply: 0.0

Ask: Tell me the recorded outcome of this test for `Cc1ccc(NCCC(=O)c2ccc(Cl)cc2)cc1` .
Reply: 1.0

Ask: Hi, do you know how COc1cccc(C2=NOC(C(=O)Nc3ccc(OC)c(OC)c3)C2)c1 (stereo not given) came out in this test?
Reply: 1.0

Ask: Tell me the recorded outcome of this test for `Cc1ccc2c(c1)N(CCC(=O)NCCN1CCOCC1)C(=O)CO2` .
Reply: 0.0

Ask: What call does the record list for `Cc1ccc(NC(=O)c2cc(NC(=O)CCCC(=O)O)ccc2Cl)cc1Cl` ?
Reply: 0.0

Ask: What is the recorded call for this compound in the test? COc1ccc(CCNC(=O)CCN2C(=O)C(C)Oc3ccc(C)cc32)cc1OC (stereo not given)
Reply: 0.0

Ask: Dear colleague, could you share the recorded outcome for `O=C(c1ccncc1)N1CCC2(CC1)CN(c1cccc(-c3ccccc3)c1)C2` when you have a moment?
Reply: 1.0

====

Listing of entries alongside the reported activity, negative = inhibition.
target: Cytochrome P450 1A2 (Homo sapiens); experiment: Cytochrome panel assay with activity outcomes; details: recombinant CYP, pro-luciferin dealkylation, luminescence, p450-cyp1a2; series mostly up to 57.1 µM; on activity, negative = inhibition: on the % scale 0 is the no-effect control and ±100 the full control effect
The campaign covered roughly 16,000 compounds. About 5,700 (36%) were called active. About 24% were inconclusive and are not listed. The list shows a part of the results.

Take a look at these entries with their results.
// `C[C@@H]1/C=C\CC(=O)OC[C@H]2O[C@@H](C=C[C@@H]2O)[C@H](C)/C=C\CC(=O)OC1` : activity, negative = inhibition value = -3.64% [at 11.4 µM] (inactive)

For record `N=C(N)SCC(=O)O` the listed activity, negative = inhibition is -10.2% [at 2.29 µM] (inactive)

// activity, negative = inhibition value for `Clc1ccc2c(c1)N(CCCN1CCCC13CCCCC3)c1ccccc1S2` : -6.18% [at 2.29 µM] (inactive)

// activity, negative = inhibition value for `C/C(CCN1CCCc2nc(C)c(C)cc21)=N\OC[C@@H](C)[C@H](OCc1ccccc1)C(C)C` : -3.05% [at 11.4 µM] (inactive)

Continuing:
get_value(item= `CN1CCN(CCCBr)CC1` , readout=activity, negative = inhibition) returns -20.9% [at 11.4 µM] (inactive)

So, `Cc1cc(Cc2cc(C)cc(C(C)(C)C)c2O)c(O)c(Cc2cc(C)cc(C(C)(C)C)c2O)c1` ? Its activity, negative = inhibition was -15.6% [at 2.29 µM] (inactive)

// activity, negative = inhibition value for `Cc1cc2c(nc1C)CCCN2C[C@@H](O)CN1CCN(C)CC1` : -2.48% [at 11.4 µM] (inactive)

Query `COc1ccc(CN[C@H](C)C(=O)O)cc1` yields activity, negative = inhibition of -2.04% [at 11.4 µM] (inactive)

Per the record, `C[C@@H]1CCCN(C[C@@H](O)CN2CCCc3ccccc32)C1` has activity, negative = inhibition of -10.7% [at 11.4 µM] (inactive)

====

molecular target: Cytochrome P450 1A2 (Homo sapiens) (UniProt P05177); assay: Cytochrome panel assay with activity outcomes; conditions: recombinant CYP, pro-luciferin dealkylation, luminescence, p450-cyp1a2; series mostly up to 57.1 µM
Among all 16,000 compounds or so, about 5,700 (36%) were called active. Not shown: some 24% with an inconclusive outcome. Some of the results follow.
Test readout: AC50

See these solved cases before continuing.
# AC50 of `CN(Cc1cc(C(C)(C)C)cc(Br)c1O)Cc1cc(C(C)(C)C)cc(Br)c1O` = 3.16 µM (active)

Briefly, AC50 measured for `CCOc1ccc(N2C(=O)/C(=C/c3cccs3)N(CC(=O)OC)C2=S)cc1` : inactive

Lookup result for COc1cccc(/C(O)=C2/C(=O)C(=O)N(c3ccccn3)C2c2ccc(OC)c(OC)c2)c1 (configuration not stated) ; measured AC50: inactive

So for `COc1ccc(C(=O)N2CCC3(CC2)CCN(C(c2ccccc2)c2ccccc2)CC3)cc1` , the logged AC50 turned out to be inactive

compound `N#Cc1cccc(-c2cc(-n3ccnc3)ncn2)c1` , AC50 observed: 0.126 µM (active)

AC50 reading for `COc1cccc(-c2nccc(-n3ccnc3)n2)c1` : 0.0316 µM (active)

---
AC50 in this record for `Cc1cc(NCc2ccccn2)ccc1Br` : 4.47 µM (active)

Attribution: PubChem BioAssay AID1851
